Reference for the values: paper PMC9814232

- TESTED SYSTEM: FGFR1(V561M) (Homo sapiens, UniProt P11362, V561M)
- Construct: human FGFR1 (residues 456−765); 6×His (N, cleaved yes)
- Sequence (P11362 456-765 V561M): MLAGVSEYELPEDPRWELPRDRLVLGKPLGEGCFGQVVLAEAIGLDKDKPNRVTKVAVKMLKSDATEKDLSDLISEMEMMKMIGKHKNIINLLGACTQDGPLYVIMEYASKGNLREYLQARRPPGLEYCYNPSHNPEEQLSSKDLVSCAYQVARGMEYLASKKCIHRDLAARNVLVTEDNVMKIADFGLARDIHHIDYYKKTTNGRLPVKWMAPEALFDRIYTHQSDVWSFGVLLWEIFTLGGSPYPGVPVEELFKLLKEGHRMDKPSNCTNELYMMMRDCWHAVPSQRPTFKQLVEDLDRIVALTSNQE
- MEASUREMENT PROTOCOL: ADP-Glo kinase inhibition assay, FGFR1(V561M) gatekeeper mutant
- CONDITION NOTES: kinase activity, 10 μM ATP, n = 3
ENDPOINT NAME: pIC50
Give bare numbers, as −log10 of the molar value.

Briefly, pIC50 measured for "C=CC(=O)Nc1ccc(CN2C(=O)N(c3cc(OC)cc(OC)c3)Cc3cnc(Nc4ccc(N5CCN(C)CC5)cc4)nc32)cc1" : 6.67
